The reported numbers originate from patent US20250355001A1.

Target or test system: T1, full length human tau protein 2N4R (hT40) (human, UniProt P10636 1-758)
T1 construct: recombinant; also called T441
T1 sequence (P10636 other isoform, or with tags, fused parts or gaps limits assumed): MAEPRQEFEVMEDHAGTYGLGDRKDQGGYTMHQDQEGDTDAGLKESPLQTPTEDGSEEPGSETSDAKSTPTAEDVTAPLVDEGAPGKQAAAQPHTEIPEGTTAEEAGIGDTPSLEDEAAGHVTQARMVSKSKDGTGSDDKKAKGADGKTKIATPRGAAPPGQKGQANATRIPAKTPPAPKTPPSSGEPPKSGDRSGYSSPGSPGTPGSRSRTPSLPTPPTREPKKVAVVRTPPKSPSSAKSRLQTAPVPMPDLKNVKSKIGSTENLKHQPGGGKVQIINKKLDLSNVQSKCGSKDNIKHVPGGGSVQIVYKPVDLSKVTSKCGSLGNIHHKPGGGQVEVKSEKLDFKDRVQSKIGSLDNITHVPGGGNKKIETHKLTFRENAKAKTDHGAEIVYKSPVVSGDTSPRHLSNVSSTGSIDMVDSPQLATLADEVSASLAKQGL
Assay details: SPR, hT40 immobilised, mAb analyte
# maps each entry to its pKd
Please keep in mind that pKd is minus log10 of the molar concentration; only the number is needed.

Please review the following examples before continuing.
# Binder, Result number
records = [
    ("CA4 mAb (antibody, mouse IgG2a, V domains shown, sheep-mouse IgG2a chimeric mAb; also called CA4 antibody) VH: QVQLQESGPSLVKPSQTLSLTCTVSGFSLTSYSVYWVRQAPGQALEWISIMYASGRVDYNPALKSRLSITRDTSKSQFSLSLSSVTTEDTAVYYCTRGIENWGPGLLVTVSS VL: DIQVTQSPSSLSASLTERVSITCRTSQSVNNYLSWYQQKPGQAPKLLIYYATRLYTDVPSRFSGSGSGTDYTLTITSLEADDTATYYCLQYDSTPLAFGGGTNVEIKG", 8.89),
    ("CB7 mAb (antibody, mouse IgG2a, V domains shown, sheep-mouse IgG2a chimeric mAb; also called CB7 antibody) VH: QVQLQESGPSLVKPSQTLSLTCTVSGFSLTNYRVGWVRQAPGKALEWVSNIRSGGTTWYNPALKSRLSITADTSKSQVSLSLSSVTTEDTAVYYCARDSSGDLYAYDYWGPGLLVTVSS VL: QAVLTQPSSVSRSLGQSVSMTCSGSSSNVGYGNYMAWFQQVPGSAPKLLIYGATSRASGVPDRFSGSRSGNTATLTISSLQAEDEADYYCASYDSTSGGVFGSGTRLTVLG", 8.43),
]

Here is another binder to look at.
-- ask Request the reported pKd associated with CC7 mAb (antibody, mouse IgG2a, V domains shown, sheep-mouse IgG2a chimeric mAb; also called CC7 antibody) VH: QVQLQESGPSLVKPSQTLSLTCTVSGFSLTSNAVIWVRQAPGKAPEWVALIDVDGDAAYDPALKSRLSITRDTSKSQVSLSLRSVTTEDTAVYYCARDYGSWGYVSDIDYWGPGLLVTVSS VL: RVVRTQPSSVSGSLGQRVSITCSGSYITGSSVGWFQQVPGSGLKTVIYDNNDRPSGVPDRFSGSKSGDTATLTISSLQAEDEADYYCASYDTSNIGLFGSGTRLTVLG
-- reply 8.16
